The measurements presented in this section are drawn from ChEMBL document CHEMBL3739388.

System: RAW264.7
Assay: Toxicity in mouse RAW264.7 cells assessed as effect on TNF-alpha mRNA level by qRT-PCR analysis
Type: cell-based
value.kind: Activity

query.smiles	experimental.value
O=C1NCC(=O)N2CCC[C@@H]12	Non-toxic
CC(C)C[C@@H]1NC(=O)[C@@H]2C[C@@H](O)CN2C1=O	Non-toxic
O=C1N[C@@H](Cc2ccccc2)C(=O)N2C[C@H](O)C[C@@H]12	Non-toxic
O=C1N[C@@H](Cc2ccccc2)C(=O)N2CCC[C@@H]12	Non-toxic

###

Test system: RAW264.7
Experiment: Inhibition of LPS-induced IL-1beta mRNA level in mouse RAW264.7 cells in presence of 1 ug/ml LPS for 6 hrs by qRT-PCR analysis
Format: functional, cell-based

query.smiles	inhibition
CC(C)C[C@@H]1NC(=O)[C@@H]2C[C@@H](O)CN2C1=O	Dose-dependent effect
O=C1N[C@@H](Cc2ccccc2)C(=O)N2CCC[C@@H]12	Dose-dependent effect
O=C1NCC(=O)N2CCC[C@@H]12	Dose-dependent effect
O=C1N[C@@H](Cc2ccccc2)C(=O)N2C[C@H](O)C[C@@H]12	Dose-dependent effect
